# Tested on: Enterococcus faecalis
# measurement.notes: Antimicrobial activity against multidrug-resistant Enterococcus faecalis after 18 hrs by agar dilution method
# Assay type: functional
parameter: log10 of MIC90 (log10 of the value in mg/L)
On a log10 scale: recorded MIC90, unit mg/L.

Let me check: COc1cc(O)c2c(c1Br)C(=O)OCC(=O)NCC(=O)N[C@H](c1nc(C)no1)CSC2 , system Enterococcus faecalis, measured log10 of MIC90 is -0.30

Let me check: CC(=O)NC[C@H]1CN(c2ccc(N3CCOCC3)c(F)c2)C(=O)O1 [LINEZOLID] , system Enterococcus faecalis, measured log10 of MIC90 is 0.30

Let me check: C[C@@H](O)[C@H]1C(=O)N2C(C(=O)O)=C(SCCNC=N)C[C@H]12 [IMIPENEM ANHYDROUS] , system Enterococcus faecalis, measured log10 of MIC90 is 0.30

Let me check: COc1cc(O)c2c(c1C)C(=O)OCCCCC(=S)N[C@H](c1nc(C)no1)CSC2 , system Enterococcus faecalis, measured log10 of MIC90 is 0.60

Let me check: CN[C@H](CC(C)C)C(=O)N[C@H]1C(=O)N[C@@H](CC(N)=O)C(=O)N[C@H]2C(=O)N[C@H]3C(=O)N[C@H](C(=O)N[C@H](C(=O)O)c4cc(O)cc(O)c4-c4cc3ccc4O)[C@H](O)c3ccc(c(Cl)c3)Oc3cc2cc(c3O[C@@H]2O[C@H](CO)[C@@H](O)[C@H](O)[C@H]2O[C@H]2C[C@](C)(N)[C@H](O)[C@H](C)O2)Oc2ccc(cc2Cl)[C@H]1O [VANCOMYCIN] , system Enterococcus faecalis, measured log10 of MIC90 is 2.41

Let us move to another entry and its log10 of MIC90.
Let me check: COc1cc(O)c2c(c1C)C(=O)O[C@H](CO)CCC/C(S)=N/[C@H](c1nc(C)no1)CSC2 , system Enterococcus faecalis, measured log10 of MIC90 is 0.00

---

# Test system: Escherichia coli
# measurement.notes: Antimicrobial activity against Escherichia coli 25922 after 18 hrs by agar dilution method
# Format: functional
# experimental.parameters: Escherichia coli, 25922, 18 h
parameter: MIC

Short answer for COc1cc(O)c2c(c1C)C(=O)OCC(=O)NCC(=O)N[C@H](c1nc(C)no1)CSC2 : MIC was > 64 µg/mL

Short answer for COc1cc(O)c2c(c1C)C(=O)OCCCCC(=O)N[C@H](c1nc(C)no1)CSC2 : MIC was > 64 µg/mL

Short answer for COc1cc(O)c2c(c1Br)C(=O)OCC(=O)NCC(=O)N[C@H](c1nc(C)no1)CSC2 : MIC was > 64 µg/mL

Short answer for COc1cc(O)c2c(c1Br)C(=O)OCCCCC(=O)N[C@H](c1nc(C)no1)CSC2 : MIC was 64 µg/mL

Short answer for COc1cc(O)c2c(c1Br)C(=O)OCCCCC(=S)N[C@H](c1nc(C)no1)CSC2 : MIC was > 64 µg/mL

New cases:
Short answer for COc1cc(O)c2c(c1C)C(=O)OCCCCC(=S)N[C@H](c1nc(CN)no1)CSC2.Cl : MIC was 64 µg/mL

Short answer for CN[C@H](CC(C)C)C(=O)N[C@H]1C(=O)N[C@@H](CC(N)=O)C(=O)N[C@H]2C(=O)N[C@H]3C(=O)N[C@H](C(=O)N[C@H](C(=O)O)c4cc(O)cc(O)c4-c4cc3ccc4O)[C@H](O)c3ccc(c(Cl)c3)Oc3cc2cc(c3O[C@@H]2O[C@H](CO)[C@@H](O)[C@H](O)[C@H]2O[C@H]2C[C@](C)(N)[C@H](O)[C@H](C)O2)Oc2ccc(cc2Cl)[C@H]1O [VANCOMYCIN] : MIC was > 64 µg/mL

Short answer for COc1cc(O)c2c(c1C)C(=O)OCCCCC(=S)N[C@H](c1nc(C)no1)CSC2 : MIC was > 64 µg/mL

Short answer for COc1cc(O)c2c(c1Cl)C(=O)OCCCCC(=S)N[C@H](c1nc(CN)no1)CSC2.Cl : MIC was 64 µg/mL
